These measurements were taken from ChEMBL document CHEMBL1132241.

measurement_description: Partition coefficient (logP)
Type: physicochemical
details: octanol/water; read-out: logP
Answer each item with its documented logP.
Give bare numbers.

Answered cases to consult:
# molecule, readout_name, obs_value
records = [
    ("COc1ccc(C(C#N)(CCN2CCc3cc(OC)c(OC)cc3C2)Sc2ccc(C)cc2)cc1OC (stereo unspecified)", "logP", 4.59),
    ("COc1ccc(C(C#N)(Cc2cccc(CN3CCc4cc(OC)c(OC)cc4C3)c2)Sc2ccc(C)cc2)cc1OC (stereo unspecified)", "logP", 5.91),
]

Please state, for each entry, its recorded logP.
1. COc1cc2c(cc1O)CN(CCCCCC(C#N)(Sc1ccc(C)cc1)c1ccc(OC)c(OC)c1)CC2 (stereo unspecified)
2. COc1ccc(C(C#N)(CCCCCN2Cc3cc(OC)c(OC)cc3C2)SC2CCCCC2)cc1OC (stereo in doubt; 46)
3. COc1ccc(C(C#N)(CCCCCN2CCc3cc(OC)c(OCCN(C)C)cc3C2)Sc2ccc(C)cc2)cc1OC (stereo unspecified)

[5.9, 5.65, 6.1]

Return reported logP; argument: CCC(CCCCCN1CCc2cc(OC)c(OC)cc2C1)(Sc1ccc(C)cc1)c1ccc(OC)c(OC)c1 (stereo unspecified)
8.34
